test system: K. pneumoniae ATCC 10031 (SEN) and K. pneumoniae ATCC 700603 (MDR); assay: Frequency-of-resistance (FoR) assay, relative MIC of mutants; format: cell-based, Klebsiella pneumoniae; conditions: Klebsiella pneumoniae, read-out: MIC of evolved line, Klebsiella pneumoniae ATCC 10031 (KP-SEN); evolved line 3
property: MIC (µg/mL)

>>> df
                                   compound  reported_result
0  Nc1nc(-n2cc(C(=O)O)c(=O)c3cc(F)c(N4CC(O)C4)c(Cl)c32)c(F)cc1F [Delafloxacin]           0.0625
1  O=c1ccc2ncc(=O)n3c2n1C[C@H]3CN1CCC(NCc2cc3c(cn2)OCCC3)CC1 [Gepotidacin]           0.0625
2  C[C@@H]1CN2c3c(cc4c(N5C(=O)OC[C@@H]5C)noc4c3F)CC3(C(=O)NC(=O)NC3=O)[C@H]2[C@H](C)O1 [Zoliflodacin]               16
3  CN(C)[C@@H]1C(O)=C(C(N)=O)C(=O)[C@@]2(O)C(O)=C3C(=O)c4c(O)c(NC(=O)CN5CCCC5)cc(F)c4C[C@H]3C[C@@H]12 [Eravacycline]              0.5
4  C[C@H]1c2cccc(O)c2C(=O)C2=C(O)[C@]3(O)C(=O)C(C(N)=O)=C(O)[C@@H](N(C)C)[C@@H]3[C@@H](O)[C@@H]21 [Doxycycline]              0.5
